Each recorded value in this set is attributed to PubChem BioAssay (NCI).

Test: NCI Yeast Anticancer Drug Screen. Data for the sgs1 mgt1 strain (AID 161);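 further: 0% = growth of cultures given vehicle only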
Conditions: S. cerevisiae sgs1 mgt1 strain, at 50.0 µM
Protocol: Growth inhibition of yeast strains with defined genetic alterations is measured as a screen for potential anti-cancer activity. Selected strains with alterations in DNA damage repair or cell cycle control were exposed to compounds and growth inhibition was measured relative to vehicle treated controls. The strain used in this assay is sgs1 mgt1
Compounds without any hit were thinned out: in the full panel of roughly 79,000, 15% have a hit. Activity calls are given as the source filed them. No stated cut-off is given here; in the data, active means growth inhibition above about 70%; inactive means the rest.
Outcomes: 1 (yes) for active, 0 (no) for inactive

compound="CC(=O)Nc1ccc(C(=O)NN2C(=O)C(Cl)C2c2ccccc2)cc1 (configuration not stated)" label="0 (no)"
compound=O=C(CCC(=O)Nc1cccc([N+](=O)[O-])c1)CC(=O)c1ccc(Cl)cc1 label="0 (no)"
compound=CCn1c(C)[n+](CC)c2ccc(C(C)=O)cc21 label="0 (no)"
compound="CC12C(=O)NC(c3ccccc3)(c3ccccc31)C1C(=O)N(C(N)=O)C(=O)C12 (configuration not stated)" label="0 (no)"
compound="N#CC(c1ccc(Cl)cc1)c1ccc(N(CCO)CCO)cc1 (configuration not stated)" label="0 (no)"
compound="N=S(=O)(c1ccccc1)c1ccccc1[N+](=O)[O-] (configuration not stated)" label="0 (no)"
compound="CC(=O)NC(CCCNC(=O)N(C)N=O)C(=O)NCc1ccccc1 (configuration not stated)" label="0 (no)"
compound="CCC(Oc1ccc(OC)c2c1C(=O)CCC2)C(=O)O (configuration not stated)" label="0 (no)"
compound="O=C(C/C(=N\\NC(=O)C[n+]1ccccc1)C(=O)Nc1nc2ccc([N+](=O)[O-])cc2s1)CC(c1ccccc1)c1c(O)c2ccccc2oc1=O (configuration not stated)" label="0 (no)"
compound=COc1cccc(/C=C\c2ccc(O)cc2)c1 label="1 (yes)"
compound=O=C(Oc1ccc2ccccc2c1CN1CCOCC1)c1ccc([N+](=O)[O-])cc1 label="0 (no)"
compound=O=C(Nc1nccs1)Nc1cc(F)ccc1F label="0 (no)"
compound=O=C1CCCS(=O)(=O)CCC1 label="0 (no)"
compound=CCCCCCSc1n[nH]c(=S)s1 label="0 (no)"
compound="COC1OC(OC2OC=C3C(=O)OC4CC(C)C2C34)C(O)C(O)C1O (configuration not stated)" label="0 (no)"
compound="O=C1NC(=O)C(c2ccc(Cl)c(Cl)c2)N1 (configuration not stated)" label="0 (no)"
compound=C[C@H](C(=O)C12CC3CC(CC(C3)C1)C2)[C@H](O)c1ccccc1 label="0 (no)"
compound=CCOC(=O)c1nc2cc(N3CCOCC3)c(F)cc2[nH]c1=O label="0 (no)"
compound=N=C(N)N1CCC(N2CCOCC2)CC1 label="0 (no)"
compound=Cc1ccc2nc(N(C)C)cc(N(C)C)c2c1 label="0 (no)"
compound="NC(=O)NCCCC1NC(=S)N(c2ccccc2)C1=O (configuration not stated)" label="0 (no)"
compound=COc1cc(/C=C2\N=C(C)N(n3c(-c4ccccc4)nc4ccccc4c3=O)C2=O)cc(OC)c1OC label="0 (no)"
compound="Cc1ccc(S(=O)(=O)CN2C(=O)C(c3ccccc3)(c3ccccc3)C23OC(c2ccc(Cl)cc2)=CC3=O)cc1 (configuration not stated)" label="0 (no)"
compound=CCN(CC)CCC(=O)Nc1cc(OC)cc2cccnc12 label="0 (no)"
compound=CCN(CC)CCN(C(=Nc1ccccc1)N1CCOCC1)c1ccccc1 label="0 (no)"
compound=CC1=C(C(=O)Nc2ccccc2C)C(c2ccccc2)C(C(=O)Nc2ccccc2C)=C(C)N1 label="0 (no)"
compound=CCCCC(=CC(C)(C)C)CCCC label="0 (no)"
compound=COC(=O)c1sc(N2CCCC2)nc1N label="0 (no)"
compound=Nc1ccc(C(=O)Nc2ccc(C(=O)Nc3ccc4c(O)cc(S(=O)(=O)O)cc4c3)cc2)cc1 label="0 (no)"
compound=O=C(Cc1ccccc1CCO)NCCc1ccccc1 label="0 (no)"
compound="COC1OC(C(COC(=O)c2ccccc2)OC(=O)c2ccccc2)C(OC(=O)c2ccccc2)C1OS(C)(=O)=O (configuration not stated)" label="0 (no)"
compound=O=c1oc2ccc(Cl)cc2n1CN1CCOCC1 label="0 (no)"
compound=COc1ccc2occc2c1 label="0 (no)"
compound="CN(C)c1nc(OC2C(C(O)CO)OC3OC(C)(C)OC32)nc(N(C)C)n1 (configuration not stated)" label="0 (no)"
compound="C[n+]1ccccc1C(O)C(O)c1cccc[n+]1C (configuration not stated)" label="0 (no)"
compound=CC(=O)CC(=O)Nc1ccccc1C(C)C label="0 (no)"
compound=NC(=O)C(CCc1ccccc1)(CCc1ccccc1)c1ccc2ccccc2c1 label="0 (no)"
compound="Cc1ccc(NC(=O)CCCC(=O)C(C#N)c2nc3ccccc3s2)cc1C (configuration not stated)" label="0 (no)"
compound="CC1(C)C2CCC(=O)C1CC2 (configuration not stated)" label="0 (no)"
compound=CSc1c2c([nH]c(=O)c1C#N)-c1ccccc1CC2 label="0 (no)"
compound=CC(=O)N(C(C)=O)n1c(Cc2ccc(Cl)cc2)nn(C(C)=O)c1=O label="0 (no)"
compound=Clc1ccccc1Nc1c2ccccc2nc2ccccc12 label="1 (yes)"
compound="CC(O)CNC(C)(C)CN (configuration not stated)" label="0 (no)"
compound="CC(=O)OC1C=CC(OC(C)=O)C2C1[C@H]1C3C=CC=CC3[C@@H]2S1=O (some centres not stated)" label="0 (no)"
compound=CCn1cc2c(=O)n3ncn(-c4ccc(Br)cc4)c3nc2n1 label="0 (no)"
compound="CS(=O)(=O)OC1COCC1OS(C)(=O)=O (configuration not stated)" label="0 (no)"
compound=c1cc(Cc2ccsc2)cs1 label="0 (no)"
